Tested on: PSaV Cowden strain
test method notes: microbe, parasite or virus in culture
Format: cell-based, porcine sapovirus
assay conditions: Sapporo virus, MOI=0.1 FFU, viral yield in cell supernatant, read-out: half-maximal inhibitory concentration (IC50)
property measured: IC50 (µM)

INSERT INTO results (compound, system, obs_value) VALUES
  ('CC(C)N1CCN(c2ccc(/C(=C(/CCCO)c3ccccc3)c3ccc(O)cc3)cc2)CC1 [DN200434]', 'PSaV Cowden strain', 6.24);
